Would you mind telling me the reported CC50 of each entry?
system: MCF-7 cells; experiment: Cytotoxicity in MCF-7 cells (MTT / CellTiter 96 AQueous One); format: cell-based, human

Exam item: Retrieve CC50 measured for Nc1ccn([C@H]2C=C[C@@H](CO)O2)c(=O)n1 [D4C] and print it.
Marked response: > 100 µM

Exam item: Retrieve CC50 measured for Nc1nc2c(ncn2C2COC(CO)O2)c(=O)[nH]1 [9-(β-D-1,3-Dioxolan-4-yl)guanine (DXG), 9-(β-D-1,3-Dioxolan-4-yl)guanine] and print it.
Marked response: > 100 µM

Exam item: Retrieve CC50 measured for Nc1nc2c(ncn2[C@H]2C=C[C@@H](CO)C2)c(=O)[nH]1 [(-)-carbovir (CBV), (-)-carbovir] and print it.
Marked response: > 100 µM

* * *

test system: XMRV; experiment: XMRV replication in MCF-7 cells (viral release by RT activity in supernatant); type: cell-based; details: XMRV, MCF-7 cells
Structures can show the parent of a compound that is named as a salt.
Would you mind telling me the reported therapeutic index (TI, the ratio of CC50/EC50) of each entry?
Reply briefly: the number, and no unit.

Exam item: Retrieve therapeutic index (TI, the ratio of CC50/EC50) measured for CC(C)OC(=O)OCOP(=O)(CO[C@H](C)Cn1cnc2c(N)ncnc21)OCOC(=O)OC(C)C [Tenofovir disoproxil fumarate (TDF), Tenofovir disoproxil fumarate] and print it.
Marked response: 218

Exam item: Retrieve therapeutic index (TI, the ratio of CC50/EC50) measured for Cc1cn([C@H]2C[C@H](N=[N+]=[N-])[C@@H](CO)O2)c(=O)[nH]c1=O [3'-Azido-3'-deoxythymidine (ZDV), 3'-Azido-3'-deoxythymidine] and print it.
Marked response: 591

* * *

test system: XMRV; assay: XMRV replication in MCF-7 cells (viral release by RT activity in supernatant); assay type: cell-based; conditions: MCF7, 144 h; XMRV-infected MCF-7 cells; RT activity in supernatant, day 6; read-out: XMRV in MCF-7 cells EC50
MEASUREMENT TYPE: EC50 (µM)
Reply numerically in µM, unit not repeated.

Exam item: Retrieve EC50 measured for Cc1c(O)cccc1C(=O)N[C@@H](CSc1ccccc1)[C@H](O)CN1C[C@H]2CCCC[C@H]2C[C@H]1C(=O)NC(C)(C)C [Nelfinavir] and print it.
Marked response: 34.3

Exam item: Retrieve EC50 measured for CC(C)c1nc(CN(C)C(=O)N[C@H](C(=O)N[C@@H](Cc2ccccc2)C[C@H](O)[C@H](Cc2ccccc2)NC(=O)OCc2cncs2)C(C)C)cs1 [Ritonavir] and print it.
Marked response: 76.4

Exam item: Retrieve EC50 measured for COC(=O)N[C@H](C(=O)N[C@@H](Cc1ccccc1)[C@@H](O)CN(Cc1ccc(-c2ccccn2)cc1)NC(=O)[C@@H](NC(=O)OC)C(C)(C)C)C(C)(C)C [Atazanavir] and print it.
Marked response: 64.8

Exam item: Retrieve EC50 measured for Cc1nnc(C(=O)NC(C)(C)c2nc(C(=O)NCc3ccc(F)cc3)c(O)c(=O)n2C)o1 [Raltegravir (RAL, MK-0518), Raltegravir] and print it.
Marked response: 0.005

Exam item: Retrieve EC50 measured for CC(C)CN(C[C@@H](O)[C@H](Cc1ccccc1)NC(=O)O[C@H]1CCOC1)S(=O)(=O)c1ccc(N)cc1 [Amprenavir] and print it.
Marked response: 68

Exam item: Retrieve EC50 measured for Cc1cccc(C)c1OCC(=O)N[C@@H](Cc1ccccc1)[C@@H](O)C[C@H](Cc1ccccc1)NC(=O)[C@H](C(C)C)N1CCCNC1=O [Lopinavir] and print it.
Marked response: 72.2

* * *

Test: Cytotoxicity in PBM cells
Format: cell-based
Conditions: human, peripheral blood mononuclear (PBM) cells, read-out: HIV-1 in PBM cells CC50
Experimental: Each well was carefully monitored for signs of cellular toxicity due to the inhibitors by microscopic observation every 24 h. In addition, cell viability was measured using the CellTiter 96 AQueous One Solution cell proliferation assay according to the manufacturer (Promega, Madison, Wis). […] For this, supernatant from each well was collected every 24 h and frozen at −20°C until it was analyzed by RT assay for viral release as described previously. […]
Structures can show the parent of a compound that is named as a salt.
// boundary case: CC50 equal to 30 µM maps to Criterion not met; strictly smaller maps to Criterion met

Exam item: In the record for Cc1cn([C@H]2C=C[C@@H](CO)O2)c(=O)[nH]c1=O , is CC50 less than 30 µM?
Marked response: Criterion not met

Exam item: In the record for O=c1[nH]c(=O)n([C@H]2C[C@H](O)[C@@H](CO)O2)cc1I , is CC50 less than 30 µM?
Marked response: Criterion not met

Exam item: In the record for C=C1[C@H](CO)[C@@H](O)C[C@@H]1n1cnc2c(=O)[nH]c(N)nc21 [Entecavir (ETV), Entecavir] , is CC50 less than 30 µM?
Marked response: Criterion met

Exam item: In the record for O=C1Nc2ccc(Cl)cc2[C@@](C#CC2CC2)(C(F)(F)F)O1 , is CC50 less than 30 µM?
Marked response: Criterion met

Exam item: In the record for Cc1c(O)cccc1C(=O)N[C@@H](CSc1ccccc1)[C@H](O)CN1C[C@H]2CCCC[C@H]2C[C@H]1C(=O)NC(C)(C)C , is CC50 less than 30 µM?
Marked response: Criterion not met

Exam item: In the record for Nc1nc(=O)n([C@@H]2CS[C@H](CO)O2)cc1F [Emtricitabine [(-)-FTC], Emtricitabine] , is CC50 less than 30 µM?
Marked response: Criterion not met

Exam item: In the record for Nc1nc(O)c2ncn(COC(CO)CO)c2n1 , is CC50 less than 30 µM?
Marked response: Criterion not met

Exam item: In the record for Nc1nc2c(ncn2COCCO)c(=O)[nH]1 , is CC50 less than 30 µM?
Marked response: Criterion not met

Exam item: In the record for CC(C)OC(=O)OCOP(=O)(CO[C@H](C)Cn1cnc2c(N)ncnc21)OCOC(=O)OC(C)C [Tenofovir disoproxil fumarate (TDF), Tenofovir disoproxil fumarate] , is CC50 less than 30 µM?
Marked response: Criterion met

Exam item: In the record for O=c1[nH]cnc2c1ncn2[C@H]1CC[C@@H](CO)O1 , is CC50 less than 30 µM?
Marked response: Criterion not met

Exam item: In the record for O=C(O)P(=O)(O)O , is CC50 less than 30 µM?
Marked response: Criterion not met

Exam item: In the record for Nc1ccn([C@@H]2CS[C@H](CO)O2)c(=O)n1 , is CC50 less than 30 µM?
Marked response: Criterion not met

Exam item: In the record for CC(C)CN(C[C@@H](O)[C@H](Cc1ccccc1)NC(=O)O[C@H]1CCOC1)S(=O)(=O)c1ccc(N)cc1 , is CC50 less than 30 µM?
Marked response: Criterion not met

Exam item: In the record for CC(=O)Oc1ccccc1C(=O)O , is CC50 less than 30 µM?
Marked response: Criterion not met

Exam item: In the record for Nc1ccn(C[C@@H](CO)OCP(=O)(O)O)c(=O)n1 [Vistide (HPMPC), Vistide] , is CC50 less than 30 µM?
Marked response: Criterion not met

Exam item: In the record for NC(=O)c1ncn([C@@H]2O[C@H](CO)[C@@H](O)[C@H]2O)n1 [Ribavirin (RBV), Ribavirin] , is CC50 less than 30 µM?
Marked response: Criterion not met

Exam item: In the record for CC(C)(C)NC(=O)[C@@H]1C[C@@H]2CCCC[C@@H]2CN1C[C@@H](O)[C@H](Cc1ccccc1)NC(=O)[C@H](CC(N)=O)NC(=O)c1ccc2ccccc2n1 , is CC50 less than 30 µM?
Marked response: Criterion met

* * *

Would you mind telling me the reported EC90 of each entry?
tested on: HIV-1LAI; assay: HIV-1 replication in PHA-stimulated peripheral blood mononuclear cells; assay type: cell-based; settings: Human immunodeficiency virus 1, PBMC, read-out: HIV-1 in PBM cells EC90
Reply numerically in nM, unit not repeated.

Exam item: Retrieve EC90 measured for Cc1cn([C@H]2C[C@H](N=[N+]=[N-])[C@@H](CO)O2)c(=O)[nH]c1=O [3'-Azido-3'-deoxythymidine (ZDV), 3'-Azido-3'-deoxythymidine] and print it.
Marked response: 36

Exam item: Retrieve EC90 measured for C[C@H](Cn1cnc2c(N)ncnc21)OCP(=O)(O)O [Tenofovir (TNV), Tenofovir] and print it.
Marked response: 6600

Exam item: Retrieve EC90 measured for CC(C)(C)NC(=O)[C@@H]1CN(Cc2cccnc2)CCN1C[C@@H](O)C[C@@H](Cc1ccccc1)C(=O)N[C@H]1c2ccccc2C[C@H]1O [Indinavir] and print it.
Marked response: 64

Exam item: Retrieve EC90 measured for Cc1cccc(C)c1OCC(=O)N[C@@H](Cc1ccccc1)[C@@H](O)C[C@H](Cc1ccccc1)NC(=O)[C@H](C(C)C)N1CCCNC1=O [Lopinavir] and print it.
Marked response: 29

Exam item: Retrieve EC90 measured for Cc1nnc(C(=O)NC(C)(C)c2nc(C(=O)NCc3ccc(F)cc3)c(O)c(=O)n2C)o1 [Raltegravir (RAL, MK-0518), Raltegravir] and print it.
Marked response: 8.9
